Data origin, for the record: PubChem BioAssay (NCATS)

# System: MKL-2
# assayOverview: qHTS assay to identify novel small-molecules to repurpose for Merkel cell carcinoma treatment (AID 1296009); note: nearly all actives have a fitted effect of over 60% in size
# conditionSummary: MCC and control cell lines, CellTiter-Glo viability, 72 h; series mostly up to 46 µM
Records with an inconclusive call do not appear. Active and inactive are the calls of the source. Calls come from the whole dose curve; as a rule, active = well fitted inhibition curve with a large enough effect; inconclusive = small, poorly fitted or top-dose-only effect; inactive = flat fitted curve, though single readings scatter. Where a SMILES comes first, the peptide text is derived from it.
Answer with one of the outcomes given here: active, inactive

Record excerpt, results attached:
1) NS(=O)(=O)c1cc2c(cc1Cl)CN(C1CCCCC1)C2=O | inactive
2) OCc1cccnc1 | inactive
3) CCC(=O)O[C@H]1[C@H](O[C@@H]2[C@@H](C)[C@H](O[C@H]3C[C@@](C)(OC)[C@@H](O)[C@H](C)O3)[C@@H](C)C(=O)O[C@H](CC)[C@@](C)(O)[C@H](O)[C@@H](C)C(=O)[C@H](C)C[C@@]2(C)O)O[C@H](C)C[C@@H]1N(C)C | inactive
4) c1ccc(C(O[C@H]2CCCN(CCc3ccc4c(c3)OCO4)C2)c2ccccc2)cc1 | inactive
5) CCOC(=O)C1=C(C)NC(C)=C(C(=O)OCC)C1c1ccccc1/C=C/C(=O)OC(C)(C)C | active
6) CCC(CN)=C(c1ccccc1)c1ccccc1 | inactive
7) O=C(Nc1ccc(Cl)cc1)Nc1ccc(Cl)c(Cl)c1 | active
8) CC(=O)N[C@@H](CO)C(=O)N[C@@H](CC(=O)O)C(=O)N[C@@H](CCCCN)C(=O)N1CCC[C@H]1C(=O)O (Ac-SDKP-OH) | inactive

Q. Answer briefly: the call reported for `CC(C)C(=O)OCc1cccc(OC(=O)[C@@H]2N3C(=O)[C@@H](NC(=O)Cc4ccccc4)[C@H]3SC2(C)C)c1` in this assay.
A. inactive

Q. Do the same for `Cc1cccc(C)c1NC(=O)c1cc(S(N)(=O)=O)c(Cl)cc1O` please
A. inactive

Q. Please give the result for `CCCCCC[C@@H](CCC)C(=O)O` too.
A. inactive

Q. Then what about the compound `COc1ccc2cc(C=O)ccc2c1` ?
A. inactive
